tgt: full length human TREX1 (Homo sapiens)
Construct: N-terminally His-Tev tagged full length human TREX1; His-Tev (His tag with TEV protease site) (N)
experimentalDetails: TREX1 Biochemical Assay (fluorescence assay, degradation of dsDNA substrate)
studyConditions: 150 pM TREX1, 60 nM dsDNA substrate, 25 minutes at room temperature; read-out: hTREX1 EC50
Reported EC50 values for a set of compounds

Query string: # returns recorded EC50 (system: full length human TREX1 (Homo sapiens)) for O=C(c1ccccc1F)N(Cc1cccnc1)Cc1ccc(Cl)cc1Cl
Result string: > 10 µM

Query string: Next up: O=C(c1cccc(Cl)c1)N(Cc1cccnc1)Cc1ccc(Cl)cc1Cl
Result string: 1 to 10 µM

Query string: Next up: NC(=O)c1ccc(CN(Cc2cccc(Cl)c2Cl)C(=O)c2cccc(F)c2)cn1
Result string: > 10 µM

Query string: Next up: COc1cccc([C@H](C)N(Cc2ccc(-c3ccn[nH]3)nc2)C(=O)c2cc(F)cc(F)c2)c1Cl
Result string: 1 to 10 µM

* * *

tgt: full length human TREX1 (Homo sapiens, UniProt Q9NSU2)
Construct: N-terminally His-Tev tagged full length human TREX1; His-Tev (His tag with TEV protease site) (N)
Sequence (Q9NSU2 whole entry): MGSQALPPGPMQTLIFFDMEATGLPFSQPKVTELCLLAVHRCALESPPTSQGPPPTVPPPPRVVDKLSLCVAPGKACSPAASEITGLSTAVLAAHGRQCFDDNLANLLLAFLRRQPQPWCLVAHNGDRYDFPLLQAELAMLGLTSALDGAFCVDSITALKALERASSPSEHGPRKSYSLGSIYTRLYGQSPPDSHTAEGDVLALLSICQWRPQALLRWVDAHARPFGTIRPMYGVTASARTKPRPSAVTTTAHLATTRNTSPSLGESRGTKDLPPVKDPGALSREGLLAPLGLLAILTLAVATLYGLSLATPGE
experimentalDetails: TREX1 Biochemical Assay (fluorescence assay, degradation of dsDNA substrate)
studyConditions: 150 pM TREX1, 60 nM dsDNA substrate, 25 minutes at room temperature; read-out: hTREX1 EC50
pEC50: −log10 of the molar value.
Reported pEC50 values for a set of compounds

Consider the following illustrative entries.
- smilesRepr: "O=C(O)c1ccc(CN(Cc2ccccc2Cl)C(=O)c2cccc(F)c2)cn1"
  pEC50: "6.00 to 7.00"
- smilesRepr: "Cc1ccc(C(=O)N(Cc2cccnc2)Cc2ccc(Cl)cc2Cl)c(Br)c1"
  pEC50: "< 5.00"

Now for a further compound.
Query string: Fill blank: measured pEC50 of the compound COc1cccc(CN(Cc2cccnc2)C(=O)c2cccc(F)c2)c1Cl is ____.
Result string: 5.00 to 6.00

* * *

tgt: human TREX2 (residues M44-A279) (Homo sapiens, UniProt Q9BQ50)
Construct: human TREX2 (residues M44-A279, expressed in E. coli); His-Tev (His tag with TEV protease site) (N)
experimentalDetails: TREX2 Biochemical Assay (fluorescence assay, degradation of dsDNA substrate)
studyConditions: 2.5 nM TREX2, 60 nM dsDNA substrate, 25 minutes at room temperature; read-out: hTREX2 EC50
pEC50: −log10 of the molar value.
resultType: pEC50

Consider the following illustrative entries.
- compound: "O=C(c1cccc(F)c1)N(Cc1cncnc1)Cc1ccc(Cl)cc1Cl [Compound 106]"
  tgt: "human TREX2 (residues M44-A279) (Homo sapiens, UniProt Q9BQ50)"
  pEC50: "< 4.00"
- compound: "COc1cc(C(=O)N(Cc2cccnc2)Cc2cc(Cl)cc(Cl)c2)cc(Br)c1O [Compound 62]"
  tgt: "human TREX2 (residues M44-A279) (Homo sapiens, UniProt Q9BQ50)"
  pEC50: "< 4.00"

Query string: # returns recorded pEC50 (system: human TREX2 (residues M44-A279) (Homo sapiens, UniProt Q9BQ50)) for O=C(c1cc(F)cc(F)c1)N(Cc1cccnc1)Cc1ccc(Cl)cc1Cl [Compound 121]
Result string: 4.00 to 5.00

Query string: Next up: COc1nccc(CN(Cc2ccc(C(=O)O)nc2)C(=O)c2cc(F)cc(F)c2)c1Cl [Compound 188]
Result string: 5.00 to 6.00

* * *

tgt: human TREX2 (residues M44-A279) (Homo sapiens, UniProt Q9BQ50)
Construct: human TREX2 (residues M44-A279, expressed in E. coli); His-Tev (His tag with TEV protease site) (N)
experimentalDetails: TREX2 Biochemical Assay (fluorescence assay, degradation of dsDNA substrate)
studyConditions: 2.5 nM TREX2, 60 nM dsDNA substrate, 25 minutes at room temperature; read-out: hTREX2 EC50
Reported EC50 values for a set of compounds

Consider the following illustrative entries.
- smilesRepr: "COc1cccc([C@@H](C)N(Cc2ccc(-c3ccn[nH]3)nc2)C(=O)c2cc(F)cc(F)c2)c1Cl"
  reportedValue: "10 to 100 µM"
- smilesRepr: "Cc1ccccc1CN(Cc1ccc(C(=O)O)nc1)C(=O)c1cc(F)cc(F)c1"
  reportedValue: "10 to 100 µM"
- smilesRepr: "O=C(c1ncccn1)N(Cc1cccnc1)Cc1ccc(Cl)cc1Cl"
  reportedValue: "> 100 µM"
- smilesRepr: "COc1cc(C(=O)N(Cc2cccnc2)Cc2ccc(Cl)cc2Cl)cc(Cl)c1O"
  reportedValue: "> 100 µM"
- smilesRepr: "Cn1cc(CN(Cc2ccc(Cl)cc2Cl)C(=O)c2cccc(F)c2)cn1"
  reportedValue: "> 100 µM"

Now for a further compound.
Query string: Fill blank: measured EC50 of the compound Cc1nonc1C(=O)N(Cc1cccnc1)Cc1ccc(Cl)cc1Cl is ____.
Result string: > 100 µM

* * *

Reported EC50 values for a set of compounds
tgt: human TREX2 (residues M44-A279) (Homo sapiens, UniProt Q9BQ50)
Construct: human TREX2 (residues M44-A279, expressed in E. coli); His-Tev (His tag with TEV protease site) (N)
Sequence (Q9BQ50 44-279 isoform Q9BQ50-1): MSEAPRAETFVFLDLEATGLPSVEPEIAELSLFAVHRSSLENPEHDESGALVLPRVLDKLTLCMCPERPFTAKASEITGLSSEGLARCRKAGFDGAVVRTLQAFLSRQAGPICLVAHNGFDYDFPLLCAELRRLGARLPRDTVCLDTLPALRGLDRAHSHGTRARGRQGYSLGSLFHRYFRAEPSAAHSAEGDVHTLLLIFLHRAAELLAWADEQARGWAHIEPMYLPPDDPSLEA
experimentalDetails: TREX2 Biochemical Assay (fluorescence assay, degradation of dsDNA substrate)
studyConditions: 2.5 nM TREX2, 60 nM dsDNA substrate, 25 minutes at room temperature; read-out: hTREX2 EC50

Consider the following illustrative entries.
- compound: "O=C(c1cc(F)cc(F)c1)N(Cc1cccnc1)[C@H](CCO)c1ccc(Cl)cc1Cl [Compound 260]"
  EC50: "1 to 10 µM"
- compound: "O=C(c1cc(F)cc(F)c1)N(Cc1cnccc1Cl)Cc1cnccc1Cl [Compound 176]"
  EC50: "1 to 10 µM"
- compound: "COc1cc(Br)cc(C(=O)N(Cc2cccnc2)Cc2ccc(Cl)cc2Cl)c1 [Compound 87]"
  EC50: "> 100 µM"

Query string: Fill blank: measured EC50 of the compound O=C(c1ccc(Br)cc1)N(Cc1cccnc1)Cc1cc(Cl)cc(Cl)c1 [Compound 26] is ____.
Result string: > 100 µM

Query string: Next up: O=C(c1ccc(O)cc1)N(Cc1cccnc1)Cc1cc(Cl)cc(Cl)c1 [Compound 48]
Result string: > 100 µM

* * *

Reported pEC50 values for a set of compounds
tgt: human TREX2 (residues M44-A279) (Homo sapiens)
Construct: human TREX2 (residues M44-A279, expressed in E. coli); His-Tev (His tag with TEV protease site) (N)
experimentalDetails: TREX2 Biochemical Assay (fluorescence assay, degradation of dsDNA substrate)
studyConditions: 2.5 nM TREX2, 60 nM dsDNA substrate, 25 minutes at room temperature; read-out: hTREX2 EC50
pEC50: −log10 of the molar value.

Consider the following illustrative entries.
- compound: "O=C(c1cccc(F)c1)N(Cc1ccccn1)Cc1ccc(Cl)cc1Cl"
  pEC50: "< 4.00"
- compound: "CC(C)(C)c1ccc(C(=O)N(Cc2cccnc2)Cc2cc(Cl)cc(Cl)c2)cc1"
  pEC50: "< 4.00"
- compound: "O=C(O)c1ccc(CN(Cc2nccc(Cl)c2Cl)C(=O)c2cc(F)cc(F)c2)cn1"
  pEC50: "5.00 to 6.00"
- compound: "O=C(CCCCc1ccccc1)N(Cc1cccnc1)Cc1ccc(Cl)cc1Cl"
  pEC50: "< 4.00"
- compound: "O=C(c1ccc(Oc2ccc(Cl)cc2)cc1)N(Cc1cccnc1)Cc1ccc(Cl)cc1Cl"
  pEC50: "< 4.00"

Query string: # returns recorded pEC50 (system: human TREX2 (residues M44-A279) (Homo sapiens)) for O=C(c1ccc(Oc2ccccc2)cc1)N(Cc1cccnc1)Cc1ccc(Cl)cc1Cl
Result string: < 4.00

Query string: Next up: CC[C@H](c1cccc(Cl)c1Cl)N(Cc1ccc(C(=O)O)nc1)C(=O)c1cc(F)cc(F)c1 [Compound 254]
Result string: 5.00 to 6.00

Query string: Next up: N#CCC[C@H](c1ccccc1Cl)N(Cc1cccnc1)C(=O)c1cc(F)cc(F)c1
Result string: 4.00 to 5.00

* * *

tgt: human TREX2 (residues M44-A279) (Homo sapiens)
Construct: human TREX2 (residues M44-A279, expressed in E. coli); His-Tev (His tag with TEV protease site) (N)
experimentalDetails: TREX2 Biochemical Assay (fluorescence assay, degradation of dsDNA substrate)
studyConditions: 2.5 nM TREX2, 60 nM dsDNA substrate, 25 minutes at room temperature; read-out: hTREX2 EC50
pEC50: −log10 of the molar value.
Reported pEC50 values for a set of compounds

Consider the following illustrative entries.
- compound: "Cc1noc(C)c1C(=O)N(Cc1cccnc1)Cc1ccc(Cl)cc1Cl [Compound 115]"
  pEC50: "< 4.00"
- compound: "O=C(c1cccc(Cl)c1)N(Cc1cccnc1)Cc1ccc(Cl)cc1Cl [Compound 5]"
  pEC50: "< 4.00"
- compound: "Cn1ncc(CN(Cc2ccc(C(=O)O)nc2)C(=O)c2cc(F)cc(F)c2)c1Cl [Compound 184]"
  pEC50: "4.00 to 5.00"

Now for a further compound.
Query string: Fill blank: measured pEC50 of the compound COc1cccc(CN(Cc2cccnc2)C(=O)c2cccc(F)c2)c1Cl [Compound 127] is ____.
Result string: < 4.00
